target: S. aureus SPase (Staphylococcus aureus); assay: biochemical; conditions: IC 50 (nM) S. aureus, 20 μM substrate, 10 minutes preincubation
Sequence (P0A070 whole entry): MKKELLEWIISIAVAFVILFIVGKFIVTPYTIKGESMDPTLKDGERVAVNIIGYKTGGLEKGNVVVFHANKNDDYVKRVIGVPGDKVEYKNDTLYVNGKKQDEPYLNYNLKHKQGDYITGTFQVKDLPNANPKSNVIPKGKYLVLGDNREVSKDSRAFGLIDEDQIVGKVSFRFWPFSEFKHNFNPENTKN
*1 amine or outer side, *2 acyl side, *3 side chain or, on linkers, in order; H or OH if unused. Where a SMILES comes first, the peptide text is derived from it. [ ]: non-standard residue; d: D form. The star is where a group is joined. boroAla((+)-pinanediol) = C[C@H](N*)B1O[C@@H]2C[C@@H]3C[C@@H](C3(C)C)[C@]2(C)O1; Biphenylcarbonyl(4'-Bu) = CCCCc1ccc(-c2ccc(C(=O)*)cc2)cc1; X5 = C[C@H](N*)B1OC2C[C@@H]3C[C@@H](C3(C)C)[C@]2(C)O1; Benzoyl(4-(4-Cl-Ph)) = O=C(c1ccc(-c2ccc(Cl)cc2)cc1)*; X14 = O=C(c1ccc(Oc2ccc(Cl)cc2)cc1)*; X1 = C[C@H](N[*:1])C(=O)C(=O)[*:2]; X12 = C[C@H](N*)C(=O)c1nc2ccccc2o1; X8 = NCCCCCCCCCCCCC(=O)*; Dab = NCC[C@H](N)C(=O)O; Dap = NC[C@H](N)C(=O)O; Sar = CNCC(=O)O
Readout Label: IC50

Molecule	Readout Label	Data Value
C[C@H](NC(=O)[C@H](CCCCN)NC(=O)[C@H](C)NC(=O)[C@@H](NC(=O)[C@H](CN)NC(=O)c1ccc(Oc2ccc(Cl)cc2)cc1)[C@@H](C)O)B1O[C@@H]2C[C@@H]3C[C@@H](C3(C)C)[C@]2(C)O1 [Compound 129] (X14-[Dap]TAK-{boroAla((+)-pinanediol)})	IC50	120 nM
COC(=O)CNC(=O)C(=O)[C@H](C)NC(=O)[C@H](CCCCN)NC(=O)[C@H](C)NC(=O)[C@@H](NC(=O)[C@H](CN)NC(=O)c1ccc(-c2ccc(Cl)cc2)cc1)[C@@H](C)O [Compound 111] ({Benzoyl(4-(4-Cl-Ph))}-[Dap]TAK[X1]G-OMe)	IC50	690 nM
CCCCc1ccc(-c2ccc(C(=O)N[C@@H](CCN)C(=O)N(C)CC(=O)N[C@@H](C)C(=O)N[C@@H](CCCCN)C(=O)N[C@@H](C)B3O[C@@H]4C[C@@H]5C[C@@H](C5(C)C)[C@]4(C)O3)cc2)cc1 [Compound 124] ({Biphenylcarbonyl(4'-Bu)}-[Dab][Sar]AK-{boroAla((+)-pinanediol)})	IC50	2000 nM
CCCCc1ccc(-c2ccc(C(=O)N[C@@H](CCN)C(=O)N[C@@H](CCC(N)=O)C(=O)N[C@@H](C)C(=O)N[C@@H](CCCCN)C(=O)N[C@@H](C)B3OC4C[C@@H]5C[C@@H](C5(C)C)[C@]4(C)O3)cc2)cc1 (stereo partly shown) [Compound 122] ({Biphenylcarbonyl(4'-Bu)}-[Dab]QAK-X5)	IC50	240 nM
CCCCc1ccc(-c2ccc(C(=O)N[C@@H](CCN)C(=O)N[C@H](C(=O)N[C@@H](C)C(=O)N[C@@H](CCCCN)C(=O)N[C@@H](C)C(=O)C3OC3C)[C@@H](C)O)cc2)cc1 (single isomer, unassigned) [Compound 203 P1]	IC50	95 nM
C[C@H](NC(=O)[C@H](CCCCN)NC(=O)[C@H](C)NC(=O)[C@@H](NC(=O)[C@H](CCN)NC(=O)CCCCCCCCCCCCN)[C@@H](C)O)B1O[C@@H]2C[C@@H]3C[C@@H](C3(C)C)[C@]2(C)O1 [Compound 115] (X8-[Dab]TAK-{boroAla((+)-pinanediol)})	IC50	590 nM
C[C@H](NC(=O)[C@@H](NC(=O)[C@H](CN)NC(=O)c1ccc(-c2ccc(Cl)cc2)cc1)[C@@H](C)O)C(=O)N[C@@H](CCCCN)C(=O)N[C@@H](C)C(=O)c1nc2ccccc2o1 [Compound 214] ({Benzoyl(4-(4-Cl-Ph))}-[Dap]TAK-X12)	IC50	630 nM
